Please respond with reported inhibition for every item in the list.
test_system: PHKG2 (human) (UniProt P15735)
Sequence (P15735 whole entry, looked up): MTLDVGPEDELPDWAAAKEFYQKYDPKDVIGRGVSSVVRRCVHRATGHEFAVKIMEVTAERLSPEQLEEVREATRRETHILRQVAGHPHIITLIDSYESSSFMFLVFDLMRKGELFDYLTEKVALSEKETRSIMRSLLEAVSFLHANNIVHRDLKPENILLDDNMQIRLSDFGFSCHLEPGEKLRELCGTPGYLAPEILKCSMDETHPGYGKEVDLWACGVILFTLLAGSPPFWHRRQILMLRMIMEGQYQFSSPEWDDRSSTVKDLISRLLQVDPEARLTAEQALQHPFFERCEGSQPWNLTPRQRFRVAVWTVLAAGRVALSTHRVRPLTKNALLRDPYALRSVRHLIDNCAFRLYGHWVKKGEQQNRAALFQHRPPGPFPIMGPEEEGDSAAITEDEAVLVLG
assay: Caliper, Mobility shift assay off-chip
measurement_context: compound 0.2 µM
Kindly answer with a numeric value in %, unit omitted.

Entry CNC(=O)c1cc(Oc2ccc(NC(=O)Nc3ccc(Cl)c(C(F)(F)F)c3)cc2)ccn1 under PHKG2 (human) (UniProt P15735) had inhibition of -2.3

Entry COc1cc2c(Oc3ccc4[nH]c(C)cc4c3F)ncnc2cc1OCCCN1CCCC1 under PHKG2 (human) (UniProt P15735) had inhibition of -3.3

Entry CCN(CC)CCNC(=O)c1c(C)[nH]c(/C=C2\C(=O)Nc3ccc(F)cc32)c1C under PHKG2 (human) (UniProt P15735) had inhibition of 85.2

Entry Cc1ccc(Nc2nccc(N(C)c3ccc4c(C)n(C)nc4c3)n2)cc1S(N)(=O)=O under PHKG2 (human) (UniProt P15735) had inhibition of -1.8
